system: MDR1; experiment: MDR1-MDCKII permeability and efflux; type: in vitro ADME; conditions: dog, MDCK-MDR1; B-A; read-out: MDR1-MCKII Papp B-A
endpoint: Papp B→A (×10⁻⁶ cm/s)

Worked set:
COc1ncc(NCc2ccoc2)nc1-c1ccc(S(C)(=O)=O)cc1 :: 47.2
CS(=O)(=O)c1ccc(-c2cnc3ccn(Cc4cccs4)c3n2)cc1 :: 32

P = CS(=O)(=O)c1ccc(-c2cccc(OCc3cccs3)n2)cc1
Q = CS(=O)(=O)c1ccc(-c2cncc(NCc3cccs3)n2)cc1
R = CS(=O)(=O)c1ccc(-c2cccc(NCc3ccoc3)n2)cc1
Sort low-to-high on Papp B→A, please. Please express your ranking as an ordered list of the labels.
P, R, Q

----------
Molecular target: human recombinant COX2 (hCOX2)
Sequence (P35354 1-604): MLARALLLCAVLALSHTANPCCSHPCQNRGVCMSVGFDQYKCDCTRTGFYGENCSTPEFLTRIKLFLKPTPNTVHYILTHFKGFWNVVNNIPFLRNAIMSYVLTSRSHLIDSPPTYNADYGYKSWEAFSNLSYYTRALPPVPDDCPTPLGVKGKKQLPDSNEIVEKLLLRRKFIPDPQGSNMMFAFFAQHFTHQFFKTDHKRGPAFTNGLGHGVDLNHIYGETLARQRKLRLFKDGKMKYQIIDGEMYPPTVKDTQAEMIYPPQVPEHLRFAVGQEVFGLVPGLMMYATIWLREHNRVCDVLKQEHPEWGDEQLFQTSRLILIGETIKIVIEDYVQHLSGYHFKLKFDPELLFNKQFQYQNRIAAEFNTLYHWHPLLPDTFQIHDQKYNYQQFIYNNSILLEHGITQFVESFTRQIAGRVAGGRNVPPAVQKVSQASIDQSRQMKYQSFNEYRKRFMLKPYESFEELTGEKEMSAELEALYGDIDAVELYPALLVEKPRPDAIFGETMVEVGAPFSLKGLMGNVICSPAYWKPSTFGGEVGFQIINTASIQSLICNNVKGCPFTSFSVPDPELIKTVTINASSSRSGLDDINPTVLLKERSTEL
Assay: LCMS-based COX2 enzymatic inhibition assay (PGE2 quantification)
Format: biochemical
Parameters: COX2 2 minutes pge2/pge2d4 area ratio Avg; other: 2 minutes; readout pge2/pge2d4 area ratio; average; COX2 2 minutes pge2/pge2d4 area ratio Avg; LLE; average LLE; COX2 2 minutes pge2 area (counts) Avg; readout pge2 area (counts); other: 2 min; "ovine COX2 (oCOX2), human recombinant COX2 (hCOX2)"
Details: 2 minutes; readout pge2 area (counts); average LLE
endpoint: COX2 2 minutes pge2 area (counts) Avg. LLE

CN(C)c1cncc(-c2ccc(S(C)(=O)=O)cc2)n1 [Compound 278] :: 4.672

I = CS(=O)(=O)c1ccc(-c2cnc3ccn(Cc4cccs4)c3n2)cc1 [Compound 74]
II = CS(=O)(=O)c1ccc(-c2cc(C(F)(F)F)nc(Oc3ccc(F)cc3)n2)cc1 [Compound 130]
III = COc1ncc(NCc2cccs2)nc1-c1ccc(S(C)(=O)=O)cn1 [Compound 128]
Ordering criterion: COX2 2 minutes pge2 area (counts) Avg. LLE; begin with the maximum. # list labels per requested ordering
III, I, II

----------
biological target: ovine COX-1 (oCOX-1) (Ovis aries); construct: purchased Cayman Chemicals (Ann Arbor, Mich.); assay: LCMS-based COX-1 enzymatic inhibition assay (PGE2 quantification); type: biochemical; conditions: 10 minutes; readout pge2/pge2d4 area ratio; average LLE
Sequence (P05979 25-600): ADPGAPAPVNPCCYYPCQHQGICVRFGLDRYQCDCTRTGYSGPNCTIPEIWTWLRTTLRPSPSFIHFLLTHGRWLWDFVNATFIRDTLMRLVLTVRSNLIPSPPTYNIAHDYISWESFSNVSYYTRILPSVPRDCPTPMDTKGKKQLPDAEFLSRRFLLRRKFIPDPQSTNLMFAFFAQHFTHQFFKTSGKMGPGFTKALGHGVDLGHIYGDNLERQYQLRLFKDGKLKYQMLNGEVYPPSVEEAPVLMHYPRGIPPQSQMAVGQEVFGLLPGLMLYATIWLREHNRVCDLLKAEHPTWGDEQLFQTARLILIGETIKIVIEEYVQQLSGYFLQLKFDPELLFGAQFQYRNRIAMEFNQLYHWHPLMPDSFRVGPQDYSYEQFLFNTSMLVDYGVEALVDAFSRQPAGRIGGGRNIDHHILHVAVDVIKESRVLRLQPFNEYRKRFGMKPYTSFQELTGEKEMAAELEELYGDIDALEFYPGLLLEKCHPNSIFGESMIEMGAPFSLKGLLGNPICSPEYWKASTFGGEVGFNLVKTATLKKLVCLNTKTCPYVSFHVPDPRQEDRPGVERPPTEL
endpoint: COX1 10 minutes pge2/pge2d4 area ratio Avg. LLE

Answered cases to consult:
CS(=O)(=O)c1ccc(-c2cc(F)cc(NCc3ccoc3)n2)cc1 :: 1.4613
CS(=O)(=O)c1ccc(-c2ccc(F)c(OCc3cccs3)n2)cc1 :: 1.328
CS(=O)(=O)c1ccc(-c2cccc(/C=C\c3ccoc3)n2)cc1 :: 1.089
COc1ncc(NCc2ccoc2)nc1-c1ccc(S(C)(=O)=O)cc1 :: 2.274
CS(=O)(=O)c1ccc(-c2ccc(F)c(NCc3ccco3)n2)cc1 :: 1.314

P = CS(=O)(=O)c1ccc(-c2cncc(OCc3cccs3)n2)cc1
Q = CS(=O)(=O)c1ccc(-c2ccc(F)c(NCc3ccoc3)n2)cc1
R = NS(=O)(=O)c1ccc(-c2cncc(OCc3cccs3)n2)cc1
S = CS(=O)(=O)c1ccc(-c2cccc(NCc3cccs3)c2)cc1
Ascending by COX1 10 minutes pge2/pge2d4 area ratio Avg. LLE, please. Please list each label once, in the requested order.
S, Q, P, R

----------
target: human recombinant COX2 (hCOX2); assay: LCMS-based COX2 enzymatic inhibition assay (PGE2 quantification); assay type: biochemical; set-up: COX2 2 minutes pge2/pge2d4 area ratio Avg; other: 2 minutes; readout pge2/pge2d4 area ratio; average; COX2 2 minutes pge2/pge2d4 area ratio Avg; LLE; average LLE; COX2 2 minutes pge2 area (counts) Avg; readout pge2 area (counts); other: 2 min; "ovine COX2 (oCOX2), human recombinant COX2 (hCOX2)"; details: 2 minutes; readout pge2 area (counts); average; read-out: COX2 2 minutes pge2 area (counts) Avg. IC50
endpoint: IC50 (nM)

Reference set (3 entries):
CS(=O)(=O)c1ccc(-c2cc(F)cc(NCc3ccco3)n2)cc1 :: 9.37
CS(=O)(=O)c1ccc(-c2ccc3ccn(Cc4cccs4)c3n2)cc1 :: 18.5
CS(=O)(=O)c1ccc(-c2nc3cnn(Cc4cccs4)c3[nH]2)cc1 :: 4560

A = COc1ncc(NCc2sccc2C)nc1-c1ccc(S(C)(=O)=O)cc1
B = COc1ncc(NCc2cccs2)cc1-c1ccc(S(C)(=O)=O)cc1
Form field 'greater IC50' accepts A or B ; which applies? Write down the label of the entry you select.
B
(B: 1020 nM, A: 40.5 nM)

----------
assay: mouse plasma protein binding (PPB) assay; assay type: in vitro ADME; conditions: average, read-out: Mouse Plasma Protein Binding % Bound Avg (converted)
endpoint: fraction unbound

Example entries and their recorded answers appear below.
CS(=O)(=O)c1ccc(-c2cncc(OCc3cccs3)n2)cc1 [Compound 19] :: 0.02
C[C@H](Oc1cncc(-c2ccc(S(C)(=O)=O)cc2)n1)c1cccs1 (single isomer, unassigned) [Compound 53] :: 0.001
COc1ccc(NCc2cccs2)nc1-c1ccc(S(C)(=O)=O)cc1 [Compound 17] :: 0.033
COc1ncc(NCc2ccoc2)nc1-c1ccc(S(C)(=O)=O)cc1 [Compound 44] :: 0.045
CS(=O)(=O)c1ccc(-c2cccc(/C=C\c3ccoc3)n2)cc1 [Compound 35] :: 0.079

I = COc1cc(NCc2cccs2)nc(-c2ccc(S(C)(=O)=O)cc2)c1 [Compound 50]
II = CS(=O)(=O)c1ccc(-c2cccc(NCc3cccs3)n2)cc1 [Compound 24]
Which has the higher fraction unbound, I or II ? // output: label of the selected item
I

a = CS(=O)(=O)c1ccc(-c2cc(F)cc(NCc3ccco3)n2)cc1 [Compound 14]
b = CS(=O)(=O)c1ccc(-c2cccc(OCc3ccoc3)n2)cc1 [Compound 16]
Hi there, can you help? I need to know whether a or b has lower measured fraction unbound. Returns: label corresponding to the selected item.
b

P = CS(=O)(=O)c1ccc(-c2cccc(OCc3cccs3)n2)cc1 [Compound 1]
Q = COc1ncc(NCc2ccco2)nc1-c1ccc(S(C)(=O)=O)cc1 [Compound 43]
In the pair P and Q , the larger recorded fraction unbound belongs to which? // caller expects the label of the chosen entry
Q

----------
Biological target: human recombinant COX2 (hCOX2)
Sequence (P35354 1-604): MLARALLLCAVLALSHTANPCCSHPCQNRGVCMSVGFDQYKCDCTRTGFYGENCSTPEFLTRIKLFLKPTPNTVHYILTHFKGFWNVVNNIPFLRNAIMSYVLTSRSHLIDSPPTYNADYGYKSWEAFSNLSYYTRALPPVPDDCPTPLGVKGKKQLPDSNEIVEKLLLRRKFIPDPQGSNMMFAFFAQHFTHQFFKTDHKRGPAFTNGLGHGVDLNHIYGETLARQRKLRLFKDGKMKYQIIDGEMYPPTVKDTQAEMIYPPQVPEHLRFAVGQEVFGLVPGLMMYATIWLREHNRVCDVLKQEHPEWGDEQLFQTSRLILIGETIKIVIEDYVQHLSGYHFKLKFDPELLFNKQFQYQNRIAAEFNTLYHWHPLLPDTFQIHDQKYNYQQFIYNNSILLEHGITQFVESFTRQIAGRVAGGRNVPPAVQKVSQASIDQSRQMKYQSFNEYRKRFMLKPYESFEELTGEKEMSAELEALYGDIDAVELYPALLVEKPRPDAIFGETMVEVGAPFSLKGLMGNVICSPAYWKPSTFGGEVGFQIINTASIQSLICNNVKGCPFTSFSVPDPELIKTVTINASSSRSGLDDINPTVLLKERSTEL
Assay: LCMS-based COX2 enzymatic inhibition assay (PGE2 quantification)
Type: biochemical
Design: COX2 2 minutes pge2/pge2d4 area ratio Avg; other: 2 minutes; readout pge2/pge2d4 area ratio; average; COX2 2 minutes pge2/pge2d4 area ratio Avg; LLE; average LLE; COX2 2 minutes pge2 area (counts) Avg; readout pge2 area (counts); other: 2 min; "ovine COX2 (oCOX2), human recombinant COX2 (hCOX2)"
Conditions: 2 minutes; readout pge2 area (counts); average LLE
endpoint: COX2 2 minutes pge2 area (counts) Avg. LLE

Known results for molecules:
CS(=O)(=O)c1ccc(-c2cnc(N)c(OCc3cccs3)n2)cc1 :: 5.087
CS(=O)(=O)c1ccc(-c2cncc(NCc3ccsc3)n2)cc1 :: 4.97
COc1ncc(NCc2ccoc2)nc1-c1ccc(S(C)(=O)=O)cc1 :: 5.725
CS(=O)(=O)c1ccc(-c2nc(NCc3cccs3)cnc2N)cc1 :: 4.51
COc1cc(S(C)(=O)=O)ccc1-c1cncc(NCc2ccoc2)n1 :: 3.674
CSc1ccc(NCc2cccs2)nc1-c1ccc(S(C)(=O)=O)cc1 :: 3.942
CS(=O)(=O)c1ccc(-c2ccc3ccn(Cc4ccco4)c3n2)cc1 :: 3.403
CS(=O)(=O)c1ccc(-c2cncc(SC[C@@H]3CCCO3)n2)cc1 (single isomer, unassigned) :: 4.316
CS(=O)(=O)c1ccc(-c2cccc(C(=O)Cc3cccs3)n2)cc1 :: 2.638

A = CS(=O)(=O)c1ccc(-c2ncc3ccn(Cc4cccs4)c3n2)cc1
B = CS(=O)(=O)c1ccc(-c2cncc(OCc3cncs3)n2)cc1
# min-compare on COX2 2 minutes pge2 area (counts) Avg. LLE between A and B Your choice should be expressed through its label.
A
(A: 3.167, B: 4.957)
